Entry source: the NIST ThermoML archive (doi:10.1021/je900550v)

details: 300.65 K; 101.33 kPa; Liquid; Pulse-echo method
value.type: speed of sound (m/s)

| compound | units.symbol | speed of sound |
| --- | --- | --- |
| CCCC(=O)[O-].C[NH2+]CCO [N-methyl-2-hydroxyethylammonium butanoate] | m/s | 1606.6 |
| CC(C)C(=O)[O-].C[NH2+]CCO [2-hydroxy-N-methylethanaminium isobutyrate] | m/s | 1604.2 |
| C[NH2+]CCO.O=C[O-] [2-hydroxy-N-methylethanaminium formate] | m/s | 1810.4 |
| CCCCC(=O)[O-].C[NH2+]CCO [2-hydroxy-N-methylethanaminium pentanoate] | m/s | 1540.9 |
| CCC(=O)[O-].C[NH2+]CCO [2-hydroxy-N-methylethanaminium propionate] | m/s | 1682.6 |

---

settings: 289.65 K; 101.33 kPa; Liquid; Vibrating tube method
value.type: mass density (kg/m3)

| molecule | value.type | units.symbol | result.number |
| --- | --- | --- | --- |
| CCCCC(=O)[O-].C[NH2+]CCO [2-hydroxy-N-methylethanaminium pentanoate] | mass density | kg/m3 | 1021.97 |
| CC(C)C(=O)[O-].C[NH2+]CCO [2-hydroxy-N-methylethanaminium isobutyrate] | mass density | kg/m3 | 1048.72 |
| CC(=O)[O-].C[NH2+]CCO [N-methyl-2-hydroxyethylammonium acetate] | mass density | kg/m3 | 1105.89 |
| C[NH2+]CCO.O=C[O-] [2-hydroxy-N-methylethanaminium formate] | mass density | kg/m3 | 1133 |
| CCCC(=O)[O-].C[NH2+]CCO [N-methyl-2-hydroxyethylammonium butanoate] | mass density | kg/m3 | 1045 |
| CCC(=O)[O-].C[NH2+]CCO [2-hydroxy-N-methylethanaminium propionate] | mass density | kg/m3 | 1076.81 |

---

conditions: 302.65 K; 101.33 kPa; Liquid; Pulse-echo method
value.type: speed of sound (m/s)

| compound | units.symbol | result.number |
| --- | --- | --- |
| CCC(=O)[O-].C[NH2+]CCO [2-hydroxy-N-methylethanaminium propionate] | m/s | 1676.7 |
| CC(C)C(=O)[O-].C[NH2+]CCO [2-hydroxy-N-methylethanaminium isobutyrate] | m/s | 1598.6 |
| CCCC(=O)[O-].C[NH2+]CCO [N-methyl-2-hydroxyethylammonium butanoate] | m/s | 1600.2 |
| CCCCC(=O)[O-].C[NH2+]CCO [2-hydroxy-N-methylethanaminium pentanoate] | m/s | 1534.6 |
| C[NH2+]CCO.O=C[O-] [2-hydroxy-N-methylethanaminium formate] | m/s | 1806.5 |

---

conditions: 320.41 K; 101.33 kPa; Liquid; Vibrating tube method
value.type: mass density (kg/m3)

| compound | units.symbol | mass density |
| --- | --- | --- |
| CCCCC(=O)[O-].C[NH2+]CCO [2-hydroxy-N-methylethanaminium pentanoate] | kg/m3 | 1001.14 |
| CCCC(=O)[O-].C[NH2+]CCO [N-methyl-2-hydroxyethylammonium butanoate] | kg/m3 | 1024.17 |
| C[NH2+]CCO.O=C[O-] [2-hydroxy-N-methylethanaminium formate] | kg/m3 | 1115.86 |
| CC(C)C(=O)[O-].C[NH2+]CCO [2-hydroxy-N-methylethanaminium isobutyrate] | kg/m3 | 1028.87 |
| CCC(=O)[O-].C[NH2+]CCO [2-hydroxy-N-methylethanaminium propionate] | kg/m3 | 1056.67 |
| CC(=O)[O-].C[NH2+]CCO [N-methyl-2-hydroxyethylammonium acetate] | kg/m3 | 1087.33 |
